# System: Rattus norvegicus
# protocol text: Dose required to produce a fall in blood pressure of 40 mmHg in the anesthetized normotensive rat
# Type: functional
measure: ED40 (µM/kg)
One number for each entry, in µM/kg.

>  <compound>
C[C@@H]1CC(=O)NN=C1c1ccc(NC(=O)CCNC[C@@H](O)COc2ccc(CCOCC3CC3)cc2)cc1

>  <ED40 (µM/kg)>
4.9

$$$$
>  <compound>
CC1CC(=O)NN=C1c1ccc(NC(=O)CCNCC(O)COc2ccc(CCOCC3CC3)cc2)cc1 (stereo not given)

>  <ED40 (µM/kg)>
2.4

$$$$
>  <compound>
C[C@@H]1CC(=O)NN=C1c1ccc(NC(=O)CCNC[C@H](O)COc2ccc(CCOCC3CC3)cc2)cc1

>  <ED40 (µM/kg)>
2.4

$$$$

Task: Look up Rattus norvegicus data: ED40 of C[C@H]1CC(=O)NN=C1c1ccc(NC(=O)CCNC[C@@H](O)COc2ccc(CCOCC3CC3)cc2)cc1 , then report it.
Output: 20
